METHOD: physchem
ENDPOINT_NAME: pKa
Would you mind answering with just the numeric figure?

Take a look at these entries with their results.
COMPOUND	OBSERVED
CCCCCCCCCCCC(=O)O [DODECANOATE]	4.9
O=Cc1ccccc1O	8.3
Nc1ccc(O)cc1	10.3
CCc1ccc(O)cc1	10
Cc1cc(O)cc(O)c1	9.3

Continue with the next compound.
// pKa lookup, key: Nc1ccccc1O
9.7

----------
METHOD: physchem
ENDPOINT_NAME: pKa
Would you mind answering with just the numeric figure?

Take a look at these entries with their results.
COMPOUND	pKa
Oc1ccccc1-c1ccccc1 [2-PHENYLPHENOL]	9.9
CCCCCCCCC(=O)O [NONANOATE]	4.9
O=[N+]([O-])c1cccc(O)c1 [3-NITRO-PHENOL]	8.4
Oc1ccccc1Cl [2-CHLOROPHENOL]	8.5
Oc1ccc(-c2ccccc2)cc1	9.5

// pKa lookup, key: COc1ccccc1O [GUAIACOL]
9.9

Quick one: CC(C)Cc1ccccc1O
10.5

Quick one: Nc1cccc(O)c1 [3-AMINOPHENOL]
9.9

Quick one: CC(C)c1ccc(O)cc1
10.1

Quick one: COC(=O)c1ccccc1O [METHYL SALICYLATE]
10.2

Quick one: Cc1ccccc1O [ORTHOCRESOL]
10.3

----------
METHOD: physchem
CONDITION_PARAMETERS: octanol/water
Please use T for logP under 3 and F for everything else, ties included.

Use the examples below as a reference point.
COMPOUND	GROUP
CCCCCCCCCC(=O)O	F
O=C(O)c1ccccc1O	T
Oc1c(Cl)cc(Cl)c(Cl)c1Cc1c(O)c(Cl)cc(Cl)c1Cl	F
CC(C)c1ccc(O)cc1	T
O=Cc1ccc(O)cc1 [4-HYDROXYBENZALDEHYDE]	T

// switching to the query compound
Regarding Cc1ccccc1O , kindly confirm whether its logP is beneath 3.
T

----------
METHOD: physchem
CONDITION_PARAMETERS: octanol/water, pH 7.2
ENDPOINT_NAME: logD
Would you mind answering with just the numeric figure?

Take a look at these entries with their results.
MOLECULE	logD
COC(=O)c1ccccc1O [METHYL SALICYLATE]	2.46
Cc1ccccc1O	1.98
Oc1c(Cl)cc(Cl)c(Cl)c1Cl	2.59
Oc1ccccc1Cl	2.13
CC(C)c1ccc(O)cc1	2.86

// logD lookup, key: Oc1ccc(-c2ccccc2)cc1
3.2

Quick one: Nc1ccccc1O
0.57

Quick one: Nc1cccc(O)c1
0.16

----------
METHOD: physchem
ENDPOINT_NAME: pKa

Take a look at these entries with their results.
MOLECULE	OBSERVED
CC(C)Cc1ccc(O)cc1	10.2
Oc1ccc(Cl)cc1	9.4
CCc1ccccc1O	10.2
CCCCCCCCCCC(=O)O [UNDECANOATE]	4.9
O=Cc1ccc(O)cc1 [4-HYDROXYBENZALDEHYDE]	7.6

Continue with the next molecule.
// pKa lookup, key: CCCCCCC(=O)O [HEPTANOATE]
4.9

----------
METHOD: physchem
CONDITION_PARAMETERS: octanol/water
ENDPOINT_NAME: logP
Would you mind answering with just the numeric figure?

Take a look at these entries with their results.
COMPOUND	logP
CCCCCCCCCCC(=O)O [UNDECANOATE]	4.42
CCCCCCCCCCCC(=O)O [DODECANOATE]	4.92
O=[N+]([O-])c1ccccc1O [NITROPHENOLATE]	1.77
CCCCCCCC(=O)O [OCTANOIC ACID]	2.92
O=C(O)c1ccc(O)cc1 [PARABEN]	1.57
CC(C)Cc1ccccc1O	3.27

Continue with the next compound.
// logP lookup, key: CCc1ccccc1O
2.47
